experiment: chemical genetic growth profiling, strain panel (AID 1159580);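 note: tested at 20 µM; growth read once vehicle control cultures reached saturation at 30 °C; 1 = growth at the plate median or of vehicle wells; lower values mean less growth of the strain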; details: S. cerevisiae deletion strains, growth OD, locus YDR297W, strain sur2, hits give low values
The whole screen tested about 5,500 compounds, of which about 2,000 (36%) were called active. Not shown: some 18% with an inconclusive outcome. Some of the results follow.

compound | normalized growth
NCC(O)c1ccc(O)cc1 (configuration not stated) | 1.02
CN(C)CCOc1ccc(/C(=C(/CCCl)c2ccccc2)c2ccccc2)cc1 | 0.0624
COc1cc(C(=O)NCc2ccc(OCCN(C)C)cc2)cc(OC)c1OC | 0.981
NC[C@H](O)c1ccc(O)c(O)c1 | 1.01
CC(C)(C)NC[C@@H](O)COc1nsnc1N1CCOCC1 | 1.02
CNC[C@@H](O)c1ccc(O)c(O)c1 | 0.995
CN(C)CCOC(C)(c1ccccc1)c1ccccn1 (configuration not stated) | 0.973

###

Listing of recorded normalized growth by entry.
experiment: chemical genetic growth profiling, strain panel (AID 1159580); settings: S. cerevisiae deletion strains, growth OD, locus YLR268W, strain sec22, hits give low values
In all, about 5,500 compounds went through this assay and about 2,000 (36%) were called active. Another 18% or so got no clear call; they are omitted. Some of the results follow.

molecule | normalized growth
NCC(CC(=O)O)c1ccc(Cl)s1 (stereo not drawn) | 0.988
N[C@@H](Cc1ccc(O)c(O)c1)C(=O)O | 1
C=CCC1(C(C)CCC)C(=O)N=C(S)NC1=O (stereo not drawn) | 0.992
OC[C@@H]1CCCN2CCCC[C@H]12 | 1.03
C=CC(C1=CC(=O)C(OC)=CC1=O)c1ccc(OC)cc1 (stereo not drawn) | 0.87
c1ccc2c3c([nH]c2c1)CNCC3 | 1.03
CCCC(C)C1(CC)C(=O)NC(=O)NC1=O (stereo not drawn) | 1.01
CC(=O)O[C@@H]1CC2C(C)(C)C(=O)CC[C@]2(C)C2CC[C@]3(C)C(=CC(=O)O[C@H]3c3ccoc3)[C@@]21C (stereo partly drawn) | 0.956
O=[N+]([O-])c1cc(O)c(O)c([N+](=O)[O-])c1 | 0.972
CC(Cc1ccc(O)c(O)c1)C(C)Cc1ccc(O)c(O)c1 (stereo not drawn) | 0.853
C=C[C@@H](C1=CC(=O)C(OC)=C(OC)C1=O)c1ccccc1 | 0.193
c1ccc2c(c1)cc1ccc3cccc4ccc2c1c34 | 1.01
Cc1c(O)c(O)cc2c1CC=C1[C@@]2(C)CC[C@@]2(C)C3C[C@](C)(C(=O)O)CC[C@]3(C)CC[C@]12C (stereo partly drawn) | 0.891
C=CC(C)(O)CC/C=C(\C)CCC=C(C)C (stereo not drawn) | 1
CCCCC(CC)CN1CN(CC(CC)CCCC)CC(C)(N)C1 (stereo not drawn) | 0.484
Cc1ccc2cc3c(ccc4ccccc43)c3c2c1CC3 | 0.838
C=C(CC)C(=O)c1ccc(OCC(=O)O)c(Cl)c1Cl | 0.99
C=C(C)[C@H]1CC=C(C(=O)O)CC1 | 0.948
O=C(O)CF | 0.974
CCC(Cc1c(I)cc(I)c(N)c1I)C(=O)O (stereo not drawn) | 1
Cc1ccsc1/C=C/C1=NCCCN1C | 0.93
CC(=O)Nc1cc([As](=O)(O)O)ccc1O | 0.964
CC(C)(C)NCC(O)c1ccccc1Cl (stereo not drawn) | 1.09
C[n+]1cccc(C(=O)[O-])c1 | 1.02
CC(C)NCC(O)c1ccc2ccccc2c1 (stereo not drawn) | 0.989
CCN(CC)CCNC(=O)c1cc(S(C)(=O)=O)ccc1OC | 1.02
CCCC(C)C1(CC)C(=O)N=C(S)NC1=O (stereo not drawn) | 0.0785
CC(C)=CCC[C@](C)(O)C1CC=C(C)CC1 (stereo partly drawn) | 0.991

###

Listing of recorded normalized growth by entry.
experiment: chemical genetic growth profiling, strain panel (AID 1159580);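 note: tested at 20 µM; growth read once vehicle control cultures reached saturation at 30 °C; 1 = growth at the plate median or of vehicle wells; lower values mean less growth of the strain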; conditions: S. cerevisiae deletion strains, growth OD, locus YNL271C, strain bni1, hits give low values
Out of some 5,500 compounds screened, about 2,000 (36%) were called active. Another 18% or so got no clear call; they are omitted. This is one part of the list.

compound | normalized growth
CC(=O)O[C@@H]1CC2C(C)(C)C=CC(=O)[C@]2(C)C2CC[C@@]3(C)[C@H](c4ccoc4)OC(=O)C4OC43[C@@]21C (stereo partly specified) | 1
Cc1ccc(/C(=C\CN2CCCC2)c2ccccn2)cc1 | 0.986
COc1cc(C(=O)NCc2ccc(OCCN(C)C)cc2)cc(OC)c1OC | 0.976
CCOP(=S)(OCC)SCn1c(=O)oc2cc(Cl)ccc21 | 0.992
CC(C)NCC(O)c1ccc2ccccc2c1 (stereo unspecified) | 1.01
CC1(C)C(O)CC(O)C2(C)C1CC(O)C1(C)C2CCC2(C)C(c3ccoc3)CC3OC321 (stereo unspecified) | 1.01
CCN(CC)CCOc1ccc2c(c1)C(=O)c1cc(OCCN(CC)CC)ccc1-2 | 0.993
CC(C)NCC(O)c1ccc(O)c(O)c1 (stereo unspecified) | 1
COc1c2c(cc3c1OCO3)CCN(C)C2 | 1.01
NCC(O)c1ccc(O)cc1 (stereo unspecified) | 0.967
NCC(CC(=O)O)c1ccc(Cl)s1 (stereo unspecified) | 0.988
CC1(C)C(=O)C=CC2(C)C3CCC4(C)C(c5ccoc5)CC5OC54C3C(O)CC12 (stereo unspecified) | 1.01
COc1ccc(C(Cl)=C(c2ccc(OC)cc2)c2ccc(OC)cc2)cc1 | 1.01
CC(=O)O[C@@H]1C[C@@]2(C)[C@H](c3ccoc3)C[C@H]3O[C@]32[C@]2(C)C(=O)C(O)=C3C(C)(C)C(=O)C=C[C@]3(C)C12 (stereo partly specified) | 0.945
NC[C@H](O)c1ccc(O)c(O)c1 | 1.01
CC(C)(C)NCC(O)c1ccccc1Cl (stereo unspecified) | 0.987
O=C(O)CCCCC1CCSS1 (stereo unspecified) | 0.976
CC(=O)O[C@H]1C[C@@H](OC(C)=O)C(C)(C)C2C[C@@H](OC(C)=O)[C@@]3(C)C4=CC(=O)O[C@@H](c5ccoc5)[C@]4(C)CCC3[C@]21C (stereo partly specified) | 1
CC/C(=C(\c1ccccc1)c1ccc(OCCN(C)C)cc1)c1ccccc1 | 0.953
CC(=O)O[C@@H]1CC2C(C)(C)C(=O)CC[C@]2(C)C2CC[C@]3(C)C(=CC(=O)O[C@H]3c3ccoc3)[C@@]21C (stereo partly specified) | 0.993
CC1(C)C(=O)C=C[C@@]2(C)C1=C(O)C(=O)[C@]1(C)C2CC[C@@]2(C)[C@H](c3ccoc3)C[C@H]3O[C@]321 (stereo partly specified) | 0.96

###

experiment: chemical genetic growth profiling, strain panel (AID 1159580);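 note: tested at 20 µM; growth read once vehicle control cultures reached saturation at 30 °C; 1 = growth at the plate median or of vehicle wells; lower values mean less growth of the strain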; details: S. cerevisiae deletion strains, growth OD, locus YIR030C, strain dcg1
Among all 5,500 compounds or so, about 2,000 (36%) were called active. Another 18% or so got no clear call; they are omitted. Rule as the data show it: active = normalized growth mostly below about 0.91 (no sharp cut-off); inconclusive = no clear call, values can overlap the other calls; inactive = mostly above about 0.92. The list shows a part of the results.
Outcomes: yes = active, no = inactive

molecule | answer label
C1CCN2C[C@@H]3C[C@H](CN4CCCC[C@@H]34)[C@H]2C1 | no
CC(=O)OCC1(C)CCC2(C)CCC3(C)C4=CCc5c(cc(OC(C)=O)c(OC(C)=O)c5C)C4(C)CCC3(C)C2C1 (stereo not given) | no
C=CC(C1=CC(=O)C(OC)=CC1=O)c1ccc(OC)cc1 (stereo not given) | yes
C=C[C@@H](C1=CC(=O)C(OC)=C(OC)C1=O)c1ccccc1 | no
NC(=NCCC[C@H](N)C(=O)O)NC(CCC(=O)O)C(=O)O (stereo not given in full) | no
COC(=O)[C@]1(C)CC[C@]2(C)CC[C@]3(C)C4=CCc5c(cc(O)c(O)c5C)[C@]4(C)CC[C@@]3(C)C2C1 (stereo not given in full) | no
C=CC(C1=CC(=O)C=CC1=O)c1ccccc1 (stereo not given) | no
O=c1[nH]c(=O)n(C2C[C@@H](O)[C@@H](CO)O2)cc1F (stereo not given in full) | no
Oc1c(Cl)cc(Cl)c2cccnc12 | yes
O=C1CCCC2C3CC(CN12)[C@@H]1CCCCN1C3 (stereo not given in full) | no

###

test: chemical genetic growth profiling, strain panel (AID 1159580);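 note: tested at 20 µM; growth read once vehicle control cultures reached saturation at 30 °C; 1 = growth at the plate median or of vehicle wells; lower values mean less growth of the strain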; conditions: S. cerevisiae deletion strains, growth OD, locus YMR001C, strain CDC5, hits give low values
In all, about 5,500 compounds went through this assay and about 2,000 (36%) were called active. About 18% were inconclusive and are not listed. This is one part of the list.
Listing of recorded normalized growth by entry.
endpoint name: normalized growth

compound | recorded measurement
CCCc1c(C(=O)Sc2ccccn2)cnn1-c1ccc(Cl)cc1 | 0.953
CC(C)c1ccc(NC(=S)NC(=O)c2ccccc2)cc1 | 0.951
O=C(Nc1ccc(N2CCOCC2)cc1)c1ccc(-n2cccn2)cc1 | 0.983
C/C(=C\c1ccc2c(c1)OCO2)[N+](=O)[O-] | 0.0887
CC(=O)Nc1ccc(/C=C/[N+](=O)[O-])cc1 | 0.971
O=C(c1ccc2ccccc2c1)N1CCN(c2ccnc3cc(Cl)ccc23)CC1 | 0.992
O=[N+]([O-])c1cc(Br)cnc1Sc1nnc(SCC2CC2)s1 | 0.928
FC(F)(F)c1cccc(NC(=S)Nc2ccccc2)c1 | 0.98
O=C(NCCSCc1cccc(C(F)(F)F)c1)Nc1cccc(C(F)(F)F)c1 | 0.996
O=C(c1ccccc1)c1cc(Cl)ccc1NC(=S)Nc1ccc(F)cc1 | 0.995
Fc1cccc(F)c1NC(=S)Nc1cc(C(F)(F)F)cc(C(F)(F)F)c1 | 0.981
N#CCC(=O)NNC(=S)Nc1ccc(Cl)c(Cl)c1 | 0.979
COC(=O)C1=C(C)NC(C)=C(C(=O)OC)C1c1ccc(Cl)cc1Cl | 0.972
O=[N+]([O-])/C=C/c1ccsc1 | 0.0846
O=C(NC(=S)Nc1cccc(C(F)(F)F)c1)c1ccc2nonc2c1 | 0.957
O=C(NCCSCc1cccc(C(F)(F)F)c1)c1ccc(Cl)cc1 | 0.963
Cc1cc(Cl)ccc1NC(=S)NNC(=S)Nc1ccc(F)cc1 | 0.965
Cc1cc(Br)ccc1-n1c(Sc2c([N+](=O)[O-])cc(C(F)(F)F)cc2[N+](=O)[O-])nc2ccccc2c1=O | 0.981
O=C(NCCSCc1ccco1)Nc1cc(Cl)cc(Cl)c1 | 0.954
O=[N+]([O-])/C=C/c1ccc(F)cc1 | 0.0877
CCOC(=O)C1=C(N)OC2=C(C(=O)CC(C)(C)C2)C1c1ccc(Cl)cc1Cl (stereo not drawn) | 0.984
OC(CNCc1ccc(Cl)cc1)CO/N=C\C1=C(Cl)c2cc(Cl)ccc2OC1 (stereo not drawn) | 0.985
CSc1ccc(/C=C(\C)[N+](=O)[O-])cc1 | 0.0857

Where do these numbers come from? They come from PubChem BioAssay AID1159580.
